target entity: purified human HDAC6 (Homo sapiens)
Construct: purchased BPS Bioscience 5006
assay comment: HDAC6 Enzyme Assay
Format: biochemical
measurement parameters: purified human HDAC6, substrate Ac-Arg-Gly-Lys(Ac)-AMC, 1 hour at 30° C.; reported as bins
pIC50: −log10 of the molar value.
assay metric: pIC50

CC(C)(C)C(NC(=O)c1cc2cc(Cl)ccc2o1)c1ccc(C(=O)NO)cc1 (centres unmarked) [Compound I-270]: 6.30 to 7.00
CC(NC(=O)Nc1ccc(C#N)cc1)c1ccc(C(=O)NO)cc1 (centres unmarked) [Compound I-236]: > 7.00
CC(C)[C@H](NC(=O)c1cc2ccccc2[nH]1)c1ccc(C(=O)NO)cc1 [Compound I-279]: 6.30 to 7.00
CCC[C@@H](NC(=O)NC(C)(C)C)c1ccc(C(=O)NO)cc1 [Compound I-380]: 6.30 to 7.00

For this molecule ( C[C@@H](NC(=O)c1cc(Cl)c(Cl)n1C)c1cccc(C(=O)NO)c1 [Compound I-301] ), measured pIC50 is 6.30 to 7.00

For this molecule ( CC(NS(=O)(=O)c1cccc2cccnc12)c1ccc(C(=O)NO)cc1 (centres unmarked) [Compound I-363] ), measured pIC50 is 6.30 to 7.00

For this molecule ( CC(C)(C)C(NC(=O)c1cccs1)c1ccc(C(=O)NO)cc1 (centres unmarked) [Compound I-215] ), measured pIC50 is 6.30 to 7.00

----------
target entity: purified human HDAC6 (Homo sapiens, UniProt Q9UBN7)
Construct: purchased BPS Bioscience 5006
Sequence (Q9UBN7 whole entry): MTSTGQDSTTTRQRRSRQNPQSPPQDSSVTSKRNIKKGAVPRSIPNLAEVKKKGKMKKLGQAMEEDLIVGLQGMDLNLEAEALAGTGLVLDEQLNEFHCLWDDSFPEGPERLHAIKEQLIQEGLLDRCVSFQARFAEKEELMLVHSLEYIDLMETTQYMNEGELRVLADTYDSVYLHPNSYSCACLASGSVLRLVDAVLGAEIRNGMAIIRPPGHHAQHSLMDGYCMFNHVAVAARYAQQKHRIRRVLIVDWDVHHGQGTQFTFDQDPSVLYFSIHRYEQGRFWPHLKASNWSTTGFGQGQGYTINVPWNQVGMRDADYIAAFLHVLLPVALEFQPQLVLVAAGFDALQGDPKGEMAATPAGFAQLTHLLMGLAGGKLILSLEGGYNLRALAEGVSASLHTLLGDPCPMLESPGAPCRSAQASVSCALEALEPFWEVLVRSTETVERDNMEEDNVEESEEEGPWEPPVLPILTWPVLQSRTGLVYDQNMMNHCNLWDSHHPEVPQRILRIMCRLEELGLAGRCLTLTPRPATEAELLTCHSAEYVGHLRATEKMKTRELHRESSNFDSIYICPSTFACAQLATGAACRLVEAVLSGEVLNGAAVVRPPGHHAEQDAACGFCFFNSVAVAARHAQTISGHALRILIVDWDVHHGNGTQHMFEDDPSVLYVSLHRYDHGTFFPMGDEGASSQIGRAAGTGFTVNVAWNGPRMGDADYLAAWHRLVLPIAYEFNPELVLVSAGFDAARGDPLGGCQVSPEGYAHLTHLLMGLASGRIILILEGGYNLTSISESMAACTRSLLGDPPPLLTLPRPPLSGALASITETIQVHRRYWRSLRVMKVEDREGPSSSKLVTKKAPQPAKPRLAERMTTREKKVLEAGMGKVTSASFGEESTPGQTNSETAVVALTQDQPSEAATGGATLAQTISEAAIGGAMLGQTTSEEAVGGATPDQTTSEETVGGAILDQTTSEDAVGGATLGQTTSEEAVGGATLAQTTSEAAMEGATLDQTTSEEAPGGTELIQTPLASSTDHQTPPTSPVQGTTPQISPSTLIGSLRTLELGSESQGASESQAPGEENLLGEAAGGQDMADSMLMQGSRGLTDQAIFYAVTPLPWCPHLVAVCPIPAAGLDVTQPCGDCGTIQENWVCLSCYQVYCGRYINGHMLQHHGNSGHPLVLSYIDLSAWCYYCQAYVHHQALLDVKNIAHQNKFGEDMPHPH
assay comment: HDAC6 Enzyme Assay
Type: biochemical
measurement parameters: bin: greater than 500 nM and less than 1 μM (lower bound in nM, upper bound in μM)
assay metric: IC50

CC(NC(=O)c1cccc(S(C)(=O)=O)c1)c1cccc(C(=O)NO)c1 (centres unmarked): 500 to 1000 nM
CC(C)(C)C(NC(=O)c1cccc(S(C)(=O)=O)c1)c1ccc(C(=O)NO)cc1 (centres unmarked): 500 to 1000 nM
CC(C)(C)C(NC(=O)c1ccc(C(F)(F)F)cc1)c1ccc(C(=O)NO)cc1 (centres unmarked): 500 to 1000 nM
C[C@H](NC(=O)c1ccc(-c2ccccc2)cc1)c1cccc(C(=O)NO)c1: 500 to 1000 nM
CC(NC(=O)c1cc(C(C)(C)C)nn1C)c1cccc(C(=O)NO)c1 (centres unmarked): 500 to 1000 nM
CC(NC(=O)C1(c2ccc(Cl)cc2)CC1)c1cccc(C(=O)NO)c1 (centres unmarked): 500 to 1000 nM
O=C(NO)c1ccc([C@@H](NC(=O)C23CC4CC(CC(C4)C2)C3)c2ccccc2)cc1: 500 to 1000 nM

For this compound ( Cc1nc(C(=O)NC(C)c2cccc(C(=O)NO)c2)cs1 (centres unmarked) ), measured IC50 is 500 to 1000 nM

----------
# pIC50 per entry
target entity: purified human HDAC6 (Homo sapiens)
Construct: purchased BPS Bioscience 5006
assay comment: HDAC6 Enzyme Assay
Format: biochemical
measurement parameters: purified human HDAC6, substrate Ac-Arg-Gly-Lys(Ac)-AMC, 1 hour at 30° C.; reported as bins
pIC50: −log10 of the molar value.

CC(NC(=O)CCc1ccccc1)c1ccc(C(=O)NO)cc1 (centres unmarked) [Compound I-45]: > 7.00
COc1cccc2cc(C(=O)NC(c3ccc(C(=O)NO)cc3)C(C)C)oc12 (centres unmarked) [Compound I-306]: > 7.00
O=C(NO)c1ccc([C@H](NC(=O)c2cc3ccccc3s2)c2ccccc2)cc1 [Compound I-99]: > 7.00
CC(C)C(NC(=O)c1cc(C(F)(F)F)cc(C(F)(F)F)c1)c1ccc(C(=O)NO)cc1 (centres unmarked) [Compound I-173]: 6.30 to 7.00
Cc1ccc2[nH]c(C(=O)NC(C)c3cccc(C(=O)NO)c3)cc2c1 (centres unmarked) [Compound I-342]: 6.30 to 7.00

For this compound ( C[C@@H](NC(=O)C12CC3CC(CC(C3)C1)C2)c1ccc(C(=O)NO)cc1 [Compound I-209] ), measured pIC50 is > 7.00

For this compound ( CC(C)[C@@H](NC(=O)Nc1c(F)cccc1F)c1ccc(C(=O)NO)cc1 [Compound I-521] ), measured pIC50 is > 7.00

For this compound ( CC(C)C(NC(=O)C12CC3CC(CC(C3)C1)C2)c1ccc(C(=O)NO)cc1 (centres unmarked) [Compound I-58] ), measured pIC50 is > 7.00

Every entry's value here was drawn from patent US9382197B2.
